IC50 for assorted compounds
targetOfAssay: [35S]-TBPS binding, rat brain cortical membranes
testDescription: Steroid inhibition of [35S]-TBPS binding
studyConditions: Table 4, 3 nM [35S]-TBPS, in the presence of 5 mM GABA, read-out: TBPS IC50

Worked cases, answers included:
compound | IC50
Cc1nnn(CC(=O)[C@H]2CCC[C@H]3[C@@H]4CC[C@@H]5C[C@](C)(O)CCC[C@@H]5[C@H]4CC[C@]23C)n1 [Example 11] | < 0.1 µM
CC[C@]12CC[C@@](C)(O)C[C@H]1CC[C@H]1[C@@H]3CCCC[C@H](C(C)=O)[C@@]3(C)CC[C@@H]12 [Example 22] | < 0.1 µM

INPUT: Would you mind telling me what IC50 value was observed for C[C@@]1(O)CCC[C@@]2(C)[C@H](CC[C@@H]3[C@@H]2CC[C@]2(C)[C@H](C(=O)Cn4cc(C#N)cn4)CCC[C@@H]32)C1 [Example 17] ?
OUTPUT: > 1 µM

====

IC50 for assorted molecules
targetOfAssay: [35S]-TBPS binding, rat brain cortical membranes
testDescription: Steroid inhibition of [35S]-TBPS binding
studyConditions: Table 5, 3 nM [35S]-TBPS, in the presence of 5 mM GABA, read-out: TBPS IC50
Protocol: [35S]-t-Butylbicyclophosphorothionate (TBPS) binding assays using rat brain cortical membranes in the presence of 5 mM GABA has been described (Gee et al, J. Pharmacol. Exp. Ther. 1987, 241, 346-353; Hawkinson et al, Mol. Pharmacol. 1994, 46, 977-985; Lewin, A. H et al., Mol. Pharmacol. 1989, 35, 189-194). Briefly, cortices are rapidly removed following decapitation of carbon dioxide-anesthetized Sprague-Dawley rats (200-250 g). […]

compoundStructure | IC50
Cc1nnn(CC(=O)[C@H]2CC[C@H]3[C@@H]4CC[C@@H]5C[C@](C)(O)CC[C@@H]5[C@H]4CC[C@@H]32)n1 | < 0.1 µM
CC(=O)[C@H]1CCC[C@H]2[C@@H]3CC[C@@H]4C[C@](C)(O)CC[C@@H]4[C@H]3CC[C@@H]21 | < 0.1 µM
Cc1nnnn1CC(=O)[C@H]1CC[C@H]2[C@@H]3CC[C@@H]4C[C@](C)(O)CC[C@@H]4[C@H]3CC[C@@H]21 | < 0.1 µM

INPUT: Would you mind telling me what IC50 value was observed for `C[C@@]1(O)CC[C@H]2[C@H](CC[C@@H]3[C@@H]2CC[C@H]2[C@H]3CC[C@@H]2C(=O)Cn2cc(C#N)cn2)C1` ?
OUTPUT: < 0.1 µM

INPUT: Would you mind telling me what IC50 value was observed for `CC(=O)[C@@H]1CCC[C@H]2[C@@H]3CC[C@@H]4C[C@](C)(O)CC[C@@H]4[C@H]3CC[C@@H]21` ?
OUTPUT: > 1 µM

INPUT: Would you mind telling me what IC50 value was observed for `CC[C@]12CC[C@@](C)(O)C[C@H]1CC[C@H]1[C@@H]3CC[C@H](C(=O)Cn4nnnc4C)[C@H]3CC[C@@H]12` ?
OUTPUT: < 0.1 µM

INPUT: Would you mind telling me what IC50 value was observed for `CC(=O)[C@@H]1CC[C@H]2[C@@H]3CC[C@@H]4C[C@](C)(O)CC[C@@H]4[C@H]3CC[C@@H]21` ?
OUTPUT: > 1 µM

INPUT: Would you mind telling me what IC50 value was observed for `C[C@@]1(O)CC[C@H]2[C@H](CC[C@@H]3[C@@H]2CC[C@H]2[C@H]3CCC[C@@H]2C(=O)Cn2cc(C#N)cn2)C1` ?
OUTPUT: < 0.1 µM

INPUT: Would you mind telling me what IC50 value was observed for `CC(=O)[C@H]1CC[C@H]2[C@@H]3CC[C@@H]4C[C@](C)(O)CC[C@@H]4[C@H]3CC[C@@H]21` ?
OUTPUT: < 0.1 µM

INPUT: Would you mind telling me what IC50 value was observed for `Cc1nnnn1CC(=O)[C@H]1CC[C@H]2[C@@H]3CC[C@H]4C[C@](C)(O)CC[C@@H]4[C@H]3CC[C@@H]21` ?
OUTPUT: > 1 µM

INPUT: Would you mind telling me what IC50 value was observed for `C[C@@]1(O)CC[C@H]2[C@H](CC[C@H]3[C@@H]4CC[C@H](C(=O)Cn5cc(C#N)cn5)[C@@H]4CC[C@@H]32)C1` ?
OUTPUT: 0.1 to 1 µM

====

targetOfAssay: [35S]-TBPS binding, rat brain cortical membranes
testDescription: Steroid inhibition of [35S]-TBPS binding
studyConditions: Table 4, 3 nM [35S]-TBPS, in the presence of 5 mM GABA, read-out: TBPS IC50
pIC50: −log10 of the molar value.
measurementLabel: pIC50

compoundStructure | targetOfAssay | pIC50
CC(=O)[C@H]1CCC[C@H]2[C@@H]3CC=C4CC[C@](C)(O)CC[C@]4(C)[C@H]3CC[C@]12C | [35S]-TBPS binding, rat brain cortical membranes | > 7.00
CC(=O)[C@H]1CCC[C@H]2[C@@H]3CC[C@@H]4CC[C@](C)(O)CC[C@]4(C)[C@H]3CC[C@]12C | [35S]-TBPS binding, rat brain cortical membranes | < 6.00
COC[C@]1(O)CC[C@H]2CC[C@@H]3[C@H](CC[C@]4(C)[C@@H](C(=O)Cn5cc(C#N)cn5)CCC[C@@H]34)[C@@]2(C)CC1 | [35S]-TBPS binding, rat brain cortical membranes | 6.00 to 7.00
CC(=O)[C@H]1CCC[C@H]2[C@@H]3CC[C@@H]4CC[C@](C)(O)CC[C@@H]4[C@H]3CC[C@]12C | [35S]-TBPS binding, rat brain cortical membranes | < 6.00
CC[C@@]1(O)CCC[C@@]2(C)[C@H](CC[C@@H]3[C@@H]2CC[C@]2(C)[C@@H](C(=O)Cn4cc(C#N)cn4)CCC[C@@H]32)C1 | [35S]-TBPS binding, rat brain cortical membranes | 6.00 to 7.00

INPUT: Would you mind telling me what pIC50 value was observed for `C[C@]1(O)CC[C@H]2CC[C@@H]3[C@H](CC[C@]4(C)[C@@H](C(=O)Cn5cc(C#N)cn5)CCC[C@@H]34)[C@@]2(C)CC1` ?
OUTPUT: 6.00 to 7.00

INPUT: Would you mind telling me what pIC50 value was observed for `CC[C@]12CC[C@H]3[C@@H](CC[C@@H]4CC[C@@](O)(COC)CC[C@@H]43)[C@@H]1CC[C@@H]2C(=O)Cn1cc(C#N)cn1` ?
OUTPUT: 6.00 to 7.00

INPUT: Would you mind telling me what pIC50 value was observed for `CC[C@]12CC[C@@](C)(O)CC[C@H]1CC[C@H]1[C@@H]3CC[C@H](C(=O)Cn4cc(C#N)cn4)[C@@]3(C)CC[C@@H]12` ?
OUTPUT: 6.00 to 7.00

====

targetOfAssay: [35S]-TBPS binding, rat brain cortical membranes
testDescription: Steroid inhibition of [35S]-TBPS binding
studyConditions: Table 4, 3 nM [35S]-TBPS, in the presence of 5 mM GABA, read-out: TBPS IC50
IC50 for assorted molecules

Worked cases, answers included:
compoundStructure | targetOfAssay | IC50
CC[C@]12CC[C@H]3[C@@H](CC=C4CC[C@](C)(O)CC[C@@]43C)[C@@H]1CC[C@@H]2C(C)=O | [35S]-TBPS binding, rat brain cortical membranes | < 100 nM
CC[C@]12CC[C@H]3[C@@H](CC[C@@H]4CC[C@](C)(O)CC[C@@H]43)[C@@H]1CC[C@@H]2C(=O)Cn1cc(C#N)cn1 | [35S]-TBPS binding, rat brain cortical membranes | 100 to 1000 nM
CC[C@]1(O)CC[C@H]2CC[C@@H]3[C@H](CC[C@]4(C)[C@@H](C(C)=O)CCC[C@@H]34)[C@H]2CC1 | [35S]-TBPS binding, rat brain cortical membranes | > 1000 nM
CC[C@@]1(O)CCC[C@@]2(C)[C@H](CC[C@@H]3[C@@H]2CC[C@]2(C)[C@H](C(=O)Cn4cc(C#N)cn4)CCC[C@@H]32)C1 | [35S]-TBPS binding, rat brain cortical membranes | > 1000 nM

INPUT: Item `COC[C@@]1(O)CCC[C@@]2(C)[C@@H](CC[C@@H]3[C@@H]2CC[C@]2(C)[C@@H](C(=O)Cn4cc(C#N)cn4)CCC[C@@H]32)C1` with [35S]-TBPS binding, rat brain cortical membranes - IC50?
OUTPUT: < 100 nM

INPUT: Item `C[C@@]1(O)CCC[C@@]2(C)[C@@H](CC[C@@H]3[C@@H]2CC[C@]2(C)[C@@H](C(=O)CCn4cc(C#N)cn4)CCC[C@@H]32)C1` with [35S]-TBPS binding, rat brain cortical membranes - IC50?
OUTPUT: < 100 nM

Cited source for all entries: patent US20260098053A1
